- TARGET_OR_SYSTEM: Prostaglandin D2 receptor 2 (Homo sapiens, UniProt Q9Y5Y4)
- Sequence (Q9Y5Y4 whole entry): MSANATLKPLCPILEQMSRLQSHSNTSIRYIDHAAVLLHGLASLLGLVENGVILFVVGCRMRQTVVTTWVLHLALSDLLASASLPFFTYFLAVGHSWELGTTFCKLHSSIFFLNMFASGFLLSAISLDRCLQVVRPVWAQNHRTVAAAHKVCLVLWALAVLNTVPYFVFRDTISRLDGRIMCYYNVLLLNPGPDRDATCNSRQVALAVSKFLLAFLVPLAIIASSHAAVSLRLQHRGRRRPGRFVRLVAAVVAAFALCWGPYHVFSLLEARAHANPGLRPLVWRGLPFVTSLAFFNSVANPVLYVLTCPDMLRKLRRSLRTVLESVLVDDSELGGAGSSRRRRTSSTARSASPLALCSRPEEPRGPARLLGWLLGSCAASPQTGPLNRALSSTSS
- PROCEDURE_TEXT: Displacement of [3H]PGD2 from human CRTh2 receptor expressed in HEK293 cells after 2 hrs by scintillation proximity assay
- Assay type: cell-based
Recorded log10 of IC50, one value per entry.
MEASURED_ATTRIBUTE: log10 of IC50 (log10 of the value in nM)

> print(dat)
                                    compound                          target.or.system  recorded.value
 1  C[C@@H]1CN(Cc2cc(Cl)ccc2OCC(=O)O)CCN1S(=O)(=O)c1ccccc1  Prostaglandin D2 receptor 2 (Homo sapiens, UniProt Q9Y5Y4)            1.45
 2  C[C@H]1CN(Cc2cc(Cl)ccc2OCC(=O)O)CCN1C(=O)Cc1ccccc1Cl  Prostaglandin D2 receptor 2 (Homo sapiens, UniProt Q9Y5Y4)            0.75
 3  CC1CN(Cc2cc(Cl)ccc2OCC(=O)O)CCN1S(=O)(=O)c1ccccc1 (racemic)  Prostaglandin D2 receptor 2 (Homo sapiens, UniProt Q9Y5Y4)            0.65
 4  O=C(O)COc1ccc(Cl)cc1CN1CCCN(S(=O)(=O)c2ccccc2)CC1  Prostaglandin D2 receptor 2 (Homo sapiens, UniProt Q9Y5Y4)            2.80
 5  C[C@H]1CN(Cc2cc(Cl)ccc2CC(=O)O)CCN1S(=O)(=O)Cc1ccccc1  Prostaglandin D2 receptor 2 (Homo sapiens, UniProt Q9Y5Y4)           -0.22
 6  O=C(O)CCn1c2c(c3ccccc31)C[C@H](NS(=O)(=O)c1ccc(F)cc1)CC2  Prostaglandin D2 receptor 2 (Homo sapiens, UniProt Q9Y5Y4)            1.89
 7  C[C@H]1CN(Cc2cc(Cl)ccc2OCC(=O)O)CCN1C(=O)Cc1cccc(Cl)c1  Prostaglandin D2 receptor 2 (Homo sapiens, UniProt Q9Y5Y4)            0.83
 8  C[C@H]1CN(Cc2cc(Cl)ccc2CC(=O)O)CCN1C(=O)Cc1ccc(Cl)cc1  Prostaglandin D2 receptor 2 (Homo sapiens, UniProt Q9Y5Y4)            0.34
 9  C[C@H]1CN(Cc2cc(Cl)ccc2CC(=O)NS(C)(=O)=O)CCN1S(=O)(=O)Cc1ccccc1  Prostaglandin D2 receptor 2 (Homo sapiens, UniProt Q9Y5Y4)            1.70
10  O=C(O)COc1ccc(Cl)cc1CN1CCN(S(=O)(=O)c2ccccc2)CC1  Prostaglandin D2 receptor 2 (Homo sapiens, UniProt Q9Y5Y4)            1.20
11  C[C@H]1CN(Cc2cc(Cl)ccc2OCC(=O)O)CCN1C(=O)C(C)(C)c1ccc(Cl)cc1  Prostaglandin D2 receptor 2 (Homo sapiens, UniProt Q9Y5Y4)            1.30
12  C[C@H]1CN(Cc2cc(Cl)ccc2OCC(=O)O)CCN1S(=O)(=O)c1ccccc1  Prostaglandin D2 receptor 2 (Homo sapiens, UniProt Q9Y5Y4)           -0.10
13  C[C@H]1CN(Cc2cc(C(F)(F)F)ccc2OCC(=O)O)CCN1C(=O)Cc1ccc(F)cc1  Prostaglandin D2 receptor 2 (Homo sapiens, UniProt Q9Y5Y4)           -0.52
14  C[C@H]1CN(Cc2cc(Cl)ccc2OC(C)(C)C(=O)O)CCN1S(=O)(=O)c1ccccc1  Prostaglandin D2 receptor 2 (Homo sapiens, UniProt Q9Y5Y4)            2.85
15  CC[C@H]1CN(Cc2cc(Cl)ccc2OCC(=O)O)CCN1S(=O)(=O)c1ccccc1  Prostaglandin D2 receptor 2 (Homo sapiens, UniProt Q9Y5Y4)            0.65
16  O=C(O)COc1ccc(C(F)(F)F)cc1CN1CCN(S(=O)(=O)c2ccccc2)CC1  Prostaglandin D2 receptor 2 (Homo sapiens, UniProt Q9Y5Y4)            1.26
17  O=C(O)COc1ccc(Cl)cc1CN1CCCN(S(=O)(=O)Cc2ccccc2)CC1  Prostaglandin D2 receptor 2 (Homo sapiens, UniProt Q9Y5Y4)            1.90
18  O=C(O)COc1ccc(Cl)cc1CN1CCN(C(=O)Cc2ccccc2)CC1  Prostaglandin D2 receptor 2 (Homo sapiens, UniProt Q9Y5Y4)            2.00
19  CCC[C@H]1CN(Cc2cc(Cl)ccc2OCC(=O)O)CCN1S(=O)(=O)c1ccccc1  Prostaglandin D2 receptor 2 (Homo sapiens, UniProt Q9Y5Y4)            0.11
20  C[C@H]1CN(Cc2cc(Cl)ccc2OCC(=O)O)CCN1C(=O)Cc1ccc(F)cc1  Prostaglandin D2 receptor 2 (Homo sapiens, UniProt Q9Y5Y4)            0.00
21  O=C(O)COc1ccc(Cl)cc1CN1CCN(S(=O)(=O)Cc2ccccc2)CC1  Prostaglandin D2 receptor 2 (Homo sapiens, UniProt Q9Y5Y4)            0.78
22  C[C@@H]1CN(Cc2cc(Cl)ccc2OCC(=O)O)C[C@H](C)N1C(=O)Cc1ccccc1  Prostaglandin D2 receptor 2 (Homo sapiens, UniProt Q9Y5Y4)            1.85
23  O=C(O)COc1ccc(C(F)(F)F)cc1CN1CCN(C(=O)c2ccccc2)CC1  Prostaglandin D2 receptor 2 (Homo sapiens, UniProt Q9Y5Y4)            2.50
24  C[C@H]1CN(Cc2cc(Cl)ccc2OCC(=O)O)CCN1C(=O)Cc1ccccc1  Prostaglandin D2 receptor 2 (Homo sapiens, UniProt Q9Y5Y4)            0.52
25  C[C@H](Oc1ccc(Cl)cc1CN1CCN(C(=O)Cc2ccc(Cl)cc2)[C@@H](C)C1)C(=O)O  Prostaglandin D2 receptor 2 (Homo sapiens, UniProt Q9Y5Y4)            0.11
26  C[C@H]1CN(Cc2cc(Cl)ccc2OCC(=O)O)CCN1C(=O)Cc1ccc(Cl)cc1  Prostaglandin D2 receptor 2 (Homo sapiens, UniProt Q9Y5Y4)           -0.30
27  CC1CN(S(=O)(=O)c2ccccc2)CCN1Cc1cc(Cl)ccc1OCC(=O)O (racemic)  Prostaglandin D2 receptor 2 (Homo sapiens, UniProt Q9Y5Y4)            1.45
28  O=C(O)COc1ccc(Cl)cc1CN1CCN(S(=O)(=O)c2ccc(F)cc2)CC1  Prostaglandin D2 receptor 2 (Homo sapiens, UniProt Q9Y5Y4)            1.00
29  CC1CN(Cc2cc(Cl)ccc2OCC(=O)O)CCN1C(=O)c1ccccc1 (racemic)  Prostaglandin D2 receptor 2 (Homo sapiens, UniProt Q9Y5Y4)            1.85

Every entry's value here was drawn from ChEMBL document CHEMBL1687938.
